measured on: Serine/threonine-protein kinase 3 (Homo sapiens) (UniProt Q13188)
Sequence (Q13188 whole entry): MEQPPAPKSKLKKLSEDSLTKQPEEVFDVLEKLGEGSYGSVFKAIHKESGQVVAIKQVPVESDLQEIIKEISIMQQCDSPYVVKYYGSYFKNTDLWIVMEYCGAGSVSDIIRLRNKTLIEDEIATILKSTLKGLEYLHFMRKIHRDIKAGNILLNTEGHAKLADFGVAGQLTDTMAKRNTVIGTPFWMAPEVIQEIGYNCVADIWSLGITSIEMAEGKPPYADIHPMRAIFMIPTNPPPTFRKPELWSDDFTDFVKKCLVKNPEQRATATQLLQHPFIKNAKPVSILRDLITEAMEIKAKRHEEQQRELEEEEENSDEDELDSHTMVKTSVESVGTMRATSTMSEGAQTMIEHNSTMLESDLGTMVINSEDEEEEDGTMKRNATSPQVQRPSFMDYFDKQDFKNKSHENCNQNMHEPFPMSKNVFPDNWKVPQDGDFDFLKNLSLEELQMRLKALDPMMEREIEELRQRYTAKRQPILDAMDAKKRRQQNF
cond: at 0.1 µM;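 note: reported value is the mean percent inhibition of MST2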
As shown below, each of these molecules has a reported inhibition value.

molecule: COc1ccccc1Nc1ncc(-c2ccccc2)o1
unit abbrev: %
inhibition: 6.13

molecule: CCCN1CCC(Oc2cc(Nc3nc(Nc4cccc(F)c4C(N)=O)c4cc[nH]c4n3)c(OC)cc2Cl)CC1
unit abbrev: %
inhibition: -0.96

molecule: CCn1c(-c2nonc2N)nc2cnc(Oc3cccc(NC(=O)c4ccc(OCCN5CCOCC5)cc4)c3)cc21
unit abbrev: %
inhibition: 2.3

molecule: CCc1cccc(NC(=O)Nc2ccc(Oc3ccc4nc(NC(=O)OC)[nH]c4c3)cc2)c1
unit abbrev: %
inhibition: 5.1

molecule: Cc1nn(C)c2cc(N(C)c3ccnc(Nc4cccc(S(N)(=O)=O)c4)n3)ccc12
unit abbrev: %
inhibition: 1.21

molecule: NCc1ccc(-c2nc(-c3ccc(Cl)c(O)c3)c(-c3ccncc3)[nH]2)cc1
unit abbrev: %
inhibition: -1

molecule: CS(=O)(=O)CCN(CC#N)Cc1ccc(-c2ccc3ncnc(Nc4ccc(OCc5cccc(F)c5)c(Cl)c4)c3c2)o1
unit abbrev: %
inhibition: 0.67

molecule: COc1cccc(-n2ncc3c(N/N=C/c4cccc(F)c4)ncnc32)c1
unit abbrev: %
inhibition: 2.89

molecule: CCn1c(-c2nonc2N)nc2c(C#CC(C)(C)O)nc(OC[C@@H](N)c3ccccc3)cc21
unit abbrev: %
inhibition: -1.88

molecule: COC(=O)Nc1nc2cc(Oc3cccc(NC(=O)Nc4cc(C(F)(F)F)ccc4F)c3)ccc2[nH]1
unit abbrev: %
inhibition: -1.24

molecule: CC1=C(C(=O)Nc2ccc3[nH]ncc3c2)C(c2ccc(Cl)c(Cl)c2)CC(=O)N1 (stereo not drawn)
unit abbrev: %
inhibition: 1.27

molecule: Cc1ccc(NC(=O)c2ccnc(N3CCCC3)c2)cc1-c1ccc(C(=O)NCC2CC2)cc1
unit abbrev: %
inhibition: 9.39

molecule: Nc1ncnc2occ(-c3ccc(NC(=O)Nc4cccc(C(F)(F)F)c4)cc3)c12
unit abbrev: %
inhibition: 5.7
